test_system: Serum samples collected at week 16 from patients immunized with UBI AD vaccine (UB-311)
assay_text: comp. ELISA, serum P207
readout_label: IC50-based peak height
Answer with the value's number alone.

[in] Data request, read-out IC50-based peak height, for GYEVHHQKLV [Aβ9-18 or APP 770 (G680-V689)]
[out] 16

[in] IC50-based peak height for VHHQKLVFFA [Aβ12-21 or APP 770 (V683-A692)] ?
[out] 27

[in] Can you share its IC50-based peak height? I mean this binder: HQKLVFFAED [Aβ14-23 or APP 770 (H685-D694)]
[out] 0

[in] Data request, read-out IC50-based peak height, for QKLVFFAEDV [Aβ15-24 or APP 770 (Q686-V695)]
[out] 0

Field: next binder
[in] # lookup: IC50-based peak height of RHDSGYEVHH [Aβ5-14 or APP 770 (R676-H685)]
[out] 0
